Biological target: HDAC1 (Homo sapiens)
Construct: purchased Enzo Life Sciences
Sequence (Q13547 whole entry): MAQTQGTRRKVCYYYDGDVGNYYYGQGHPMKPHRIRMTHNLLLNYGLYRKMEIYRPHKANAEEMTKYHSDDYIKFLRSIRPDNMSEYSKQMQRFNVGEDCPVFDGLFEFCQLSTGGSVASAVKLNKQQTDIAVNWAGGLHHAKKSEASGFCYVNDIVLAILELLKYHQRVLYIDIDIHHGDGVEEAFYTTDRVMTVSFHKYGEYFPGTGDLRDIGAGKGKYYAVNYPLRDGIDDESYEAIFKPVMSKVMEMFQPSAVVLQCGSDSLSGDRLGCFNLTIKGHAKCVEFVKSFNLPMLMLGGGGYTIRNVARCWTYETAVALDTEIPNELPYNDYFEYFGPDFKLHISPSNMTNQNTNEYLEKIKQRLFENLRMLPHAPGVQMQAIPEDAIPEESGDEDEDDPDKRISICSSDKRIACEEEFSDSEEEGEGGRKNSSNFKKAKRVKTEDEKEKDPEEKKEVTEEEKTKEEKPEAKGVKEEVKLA
Assay: HDAC Inhibition Screening Assay (FLUOR DE LYS Fluorimetric Drug Discovery Kit), HDAC1
Assay type: biochemical
Conditions: 50 μM compound
Reported inhibition at 50 µM values are given for each entry in this list.
Reported endpoint: inhibition at 50 µM

> print(dat)
                                    compound       subject.of.test  experimental.result
 1  O=C(/C=C/c1ccc2c(c1)CCCC2NCCc1c[nH]c2ccccc12)NO (centres unmarked)  HDAC1 (Homo sapiens)                > 80%
 2  CCN(CC)c1ccc(C(=O)NC2CCc3cc(/C=C/C(=O)NO)ccc32)cc1 (centres unmarked)  HDAC1 (Homo sapiens)                > 80%
 3  O=C(/C=C/c1ccc2c(c1)CC/C(=C\c1cc(C(F)(F)F)cc(C(F)(F)F)c1)C2=O)NO  HDAC1 (Homo sapiens)            50 to 80%
 4  Nc1ccccc1NC(=O)c1ccc(COc2ccc3c(c2)CC/C(=C\c2cc(C(F)(F)F)cc(C(F)(F)F)c2)C3=O)cc1  HDAC1 (Homo sapiens)                < 50%
 5  O=C(/C=C/c1ccc2c(c1)CCC2NCCc1cc(Cl)cc(Cl)c1)NO (centres unmarked)  HDAC1 (Homo sapiens)                > 80%
 6  COc1ccc(CCNC2CCc3cc(/C=C/C(=O)Nc4ccc(F)cc4N)ccc32)cc1 (centres unmarked)  HDAC1 (Homo sapiens)                > 80%
 7  Nc1cc(F)ccc1NC(=O)CCCCC(=O)Nc1ccc2c(c1)CC/C(=C\c1cc(C(F)(F)F)cc(C(F)(F)F)c1)C2=O  HDAC1 (Homo sapiens)                < 50%
 8  COc1ccc(N2C(=O)CN(C3CCc4cc(/C=C/C(=O)NO)ccc43)C2=O)cc1 (centres unmarked)  HDAC1 (Homo sapiens)                > 80%
 9  O=C(CCCCNC(=O)c1ccc2c(c1)CC/C(=C\c1cc(C(F)(F)F)cc(C(F)(F)F)c1)C2=O)NO  HDAC1 (Homo sapiens)            50 to 80%
10  O=C(CCCCC(=O)N1CCN(C(=O)c2ccc3c(c2)CC/C(=C\c2cc(C(F)(F)F)cc(C(F)(F)F)c2)C3=O)CC1)NO  HDAC1 (Homo sapiens)            50 to 80%
11  Nc1cc(F)ccc1NC(=O)/C=C/c1ccc2c(c1)CCC2NC(=O)c1cc(C(F)(F)F)cc(C(F)(F)F)c1 (centres unmarked)  HDAC1 (Homo sapiens)                < 50%

---

Target: ATX (autotaxin) (Homo sapiens)
Construct: purchased Cayman 10803
Experiment: Autotaxin Inhibition Screening Assay (choline release from LPC, LPC-CR)
Type: biochemical
Conditions: 20 μM compound
Reported endpoint: inhibition at 20 µM

> print(dat)
                                    molecule  experimental.result
 1  O=C(CCCCCCC(=O)NC1CCc2cc(Br)ccc21)NO (centres unmarked)                < 50%
 2  COc1ccc(CCNC2CCc3cc(/C=C/C(=O)NO)ccc32)cc1 (centres unmarked)                < 50%
 3  O=C(/C=C/c1ccc(COc2ccc3c(c2)CCC(Cc2cc(C(F)(F)F)cc(C(F)(F)F)c2)C3=O)cc1)NO (centres unmarked)                < 50%
 4  Nc1cc(F)ccc1NC(=O)/C=C/c1ccc2c(c1)CCC2NS(=O)(=O)c1cc(C(F)(F)F)cc(C(F)(F)F)c1 (centres unmarked)                < 50%
 5  Cc1[nH]c2ccccc2c1CCNC1CCc2cc(/C=C/C(=O)Nc3ccc(F)cc3N)ccc21 (centres unmarked)                < 50%
 6  O=C(/C=C/c1ccc2c(c1)CC/C(=C\c1cc(C(F)(F)F)cc(C(F)(F)F)c1)C2=O)NCCCCCC(=O)NO                > 80%
 7  Nc1cc(F)ccc1NC(=O)c1ccc(COc2ccc3c(c2)CC(Cc2cc(C(F)(F)F)cc(C(F)(F)F)c2)C3=O)cc1 (centres unmarked)                < 50%
 8  O=C(/C=C/c1ccc2c(c1)CCCC2OCc1cc(C(F)(F)F)cc(C(F)(F)F)c1)NO (centres unmarked)                < 50%
 9  Nc1cc(F)ccc1NC(=O)CCCCC(=O)Nc1ccc2c(c1)CC/C(=C\c1cc(C(F)(F)F)cc(C(F)(F)F)c1)C2=O            50 to 80%
10  Cc1ccc(S(=O)(=O)NC2CCc3cc(/C=C/C(=O)NO)ccc32)cc1 (centres unmarked)                < 50%
11  O=C(/C=C/c1ccc2c(c1)CCCC2NC(=O)c1cc(C(F)(F)F)cc(C(F)(F)F)c1)NO (centres unmarked)                < 50%
12  O=C(CCCCC(=O)Nc1ccc2c(c1)CC/C(=C\c1cc(C(F)(F)F)cc(C(F)(F)F)c1)C2=O)NO                > 80%
13  O=C(/C=C/c1ccc2c(c1)CCC2N1CC(=O)N(c2cc(Cl)cc(Cl)c2)C1=O)NO (centres unmarked)                < 50%
14  CCN(CC)c1ccc(C(=O)NC2CCc3cc(/C=C/C(=O)Nc4ccc(F)cc4N)ccc32)cc1 (centres unmarked)                < 50%
15  Nc1cc(F)ccc1NC(=O)CCCCC(=O)N1CCN(C(=O)c2ccc3c(c2)CC/C(=C\c2cc(C(F)(F)F)cc(C(F)(F)F)c2)C3=O)CC1                > 80%
16  O=C(/C=C/c1ccc2c(c1)CCC2NS(=O)(=O)c1cc(C(F)(F)F)cc(C(F)(F)F)c1)NO (centres unmarked)                < 50%
17  CCN(CC)c1ccc(C(=O)NC2CCc3cc(/C=C/C(=O)NCCCCCC(=O)Nc4ccc(F)cc4N)ccc32)cc1 (centres unmarked)                < 50%
18  O=C(CCCCCCC(=O)Nc1ccc2c(c1)CCC/C2=N\O)NO                < 50%
19  O=C(/C=C/c1ccc(COc2ccc3c(c2)CCCC3=O)cc1)NO            50 to 80%
20  Nc1cc(F)ccc1NC(=O)/C=C/c1ccc(COc2ccc3c(c2)CCCC3=O)cc1                < 50%
21  O=C(CCCCCC(=O)Nc1ccc2c(c1)CC/C(=C\c1cc(C(F)(F)F)cc(C(F)(F)F)c1)C2=O)NO                > 80%
22  Nc1cc(F)ccc1NC(=O)CCCCNC(=O)c1ccc2c(c1)CC/C(=C\c1cc(C(F)(F)F)cc(C(F)(F)F)c1)C2=O                < 50%
23  O=C(/C=C/c1ccc2c(c1)CC/C(=C\c1cc(C(F)(F)F)cc(C(F)(F)F)c1)C2=O)NO            50 to 80%
24  O=C(CCCCC(=O)N1CCN(C(=O)c2ccc3c(c2)CC/C(=C\c2cc(C(F)(F)F)cc(C(F)(F)F)c2)C3=O)CC1)NO                > 80%
25  CCN(CC)c1ccc(C(=O)NC2CCc3cc(/C=C/C(=O)NO)ccc32)cc1 (centres unmarked)                < 50%
26  Nc1cc(F)ccc1NC(=O)CCCCCCC(=O)NC1CCc2cc(/C=C/C(=O)Nc3cc(Cl)cc(Cl)c3)ccc21 (centres unmarked)                < 50%

---

Target: HDAC2 (Homo sapiens)
Construct: purchased Enzo Life Sciences
Sequence (Q92769 whole entry): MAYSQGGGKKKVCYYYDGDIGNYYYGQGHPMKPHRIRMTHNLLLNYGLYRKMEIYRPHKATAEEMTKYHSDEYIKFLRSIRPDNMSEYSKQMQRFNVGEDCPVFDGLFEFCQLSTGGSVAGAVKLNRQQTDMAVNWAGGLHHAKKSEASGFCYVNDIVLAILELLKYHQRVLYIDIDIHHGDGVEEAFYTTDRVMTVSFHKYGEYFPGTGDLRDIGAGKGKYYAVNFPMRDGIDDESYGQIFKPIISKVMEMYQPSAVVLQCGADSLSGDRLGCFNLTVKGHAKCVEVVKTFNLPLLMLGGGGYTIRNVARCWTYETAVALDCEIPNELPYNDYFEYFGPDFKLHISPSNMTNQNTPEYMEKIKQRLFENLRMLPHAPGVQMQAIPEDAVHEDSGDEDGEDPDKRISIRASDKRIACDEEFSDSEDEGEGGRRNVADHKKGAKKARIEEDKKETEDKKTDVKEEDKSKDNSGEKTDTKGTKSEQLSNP
Test: HDAC Inhibition Screening Assay (FLUOR DE LYS Fluorimetric Drug Discovery Kit), HDAC2
Type: biochemical
Details: 10 μM compound
Reported endpoint: inhibition at 10 µM

> print(dat)
                                   compound       subject.of.test  experimental.result
1  CCN(CC)c1ccc(C(=O)NC2CCc3cc(/C=C/C(=O)Nc4ccc(F)cc4N)ccc32)cc1 (stereo not shown)  HDAC2 (Homo sapiens)                < 50%
2  CCN(CC)c1ccc(C(=O)NC2CCc3cc(/C=C/C(=O)NO)ccc32)cc1 (stereo not shown)  HDAC2 (Homo sapiens)                > 80%
3  Nc1cc(F)ccc1NC(=O)CCCCCCC(=O)Nc1ccc2c(c1)CC/C(=C\c1cc(C(F)(F)F)cc(C(F)(F)F)c1)C2=O  HDAC2 (Homo sapiens)                < 50%
4  O=C(/C=C/c1ccc2c(c1)CCC2NS(=O)(=O)c1cc(C(F)(F)F)cc(C(F)(F)F)c1)NO (stereo not shown)  HDAC2 (Homo sapiens)            50 to 80%
